tested on: IRAK4; settings: concentration: 1 μM,replicates: in singlicate; n = 1;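 also: KINOMEscan kinase panel screen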
# note: exactly 10% is not below, so it is false; use true for %Inh strictly under it

[
  {
    "Molecule": "CCn1c(-c2nonc2N)nc2cncc(Br)c21",
    "Classification": "true"
  },
  {
    "Molecule": "CC(C)S(=O)(=O)N1CCN(Cc2ccc3c(c2)nc(NC(=O)c2ccsc2)n3C[C@H](O)c2ccccc2)CC1",
    "Classification": "false"
  },
  {
    "Molecule": "C[C@@H](Oc1cc(-n2cnc3ccc(-c4ccncc4)cc32)sc1C(N)=O)c1ccccc1Cl",
    "Classification": "false"
  },
  {
    "Molecule": "COC(=O)c1cccc(NC(=O)NC2CCN(c3ccnc(NCc4ccc(F)cc4)n3)CC2)c1",
    "Classification": "false"
  },
  {
    "Molecule": "COc1ccc(Nc2nccc(N3CCC(NC(=O)c4cccc(C#N)c4)C3)n2)cc1 (centres unmarked)",
    "Classification": "true"
  },
  {
    "Molecule": "N#Cc1cccc(C(=O)NC2CCN(c3ccnc(Nc4ccc(F)cc4)n3)C2)c1 (centres unmarked)",
    "Classification": "true"
  },
  {
    "Molecule": "C[C@@H]1CNc2c(sc3ccc4nc(-c5ccc(O)cc5)ccc4c23)C(=O)N1",
    "Classification": "false"
  }
]

Now examine the next entry.
Lab note: confirm whether the reported %Inh for this molecule is below 10%, equality not counting. molecule: COc1cc(Nc2nccc(N3CCC(NC(=O)c4cccc(C#N)c4)C3)n2)cc(OC)c1OC (centres unmarked)
false

###

test system: MYLK; conditions: concentration: 1 μM,replicates: in singlicate; n = 1
# note: exactly 30% is not below, so it is Condition not met; use Condition met for %Inh strictly under it

A selection of reference data follows.
[
  {
    "Compound": "COC(=O)c1cccc(NC(=O)NC2CCN(c3ccnc(NCc4ccc(F)cc4)n3)CC2)c1",
    "Experimental Target": "MYLK",
    "Classification": "Condition met"
  },
  {
    "Compound": "CCn1c(-c2nonc2N)nc2cncc(Br)c21",
    "Experimental Target": "MYLK",
    "Classification": "Condition not met"
  },
  {
    "Compound": "COc1cc2ncn(-c3cc(OCC4CCCCC4)c(C(N)=O)s3)c2cc1OC",
    "Experimental Target": "MYLK",
    "Classification": "Condition met"
  },
  {
    "Compound": "O=C(Nc1ccc(Oc2ccc3nc(NC(=O)C4CC4)cn3n2)c(F)c1)c1cccn(-c2ccccc2)c1=O",
    "Experimental Target": "MYLK",
    "Classification": "Condition met"
  },
  {
    "Compound": "Cc1ccc(Nc2ccnc(Nc3ccc4c(c3)CS(=O)(=O)C4)n2)cc1O.Cl",
    "Experimental Target": "MYLK",
    "Classification": "Condition met"
  },
  {
    "Compound": "COC(=O)c1cccc(NC(=O)NC2CCN(c3ccnc(Nc4cc(OC)c(OC)c(OC)c4)n3)C2)c1 (stereo not drawn)",
    "Experimental Target": "MYLK",
    "Classification": "Condition met"
  },
  {
    "Compound": "O=C(Nc1n[nH]c2cc(-c3ccco3)ccc12)C1CC1",
    "Experimental Target": "MYLK",
    "Classification": "Condition not met"
  },
  {
    "Compound": "COc1ccc(Nc2nccc(N3CCC(NC(=O)c4cccc(C#N)c4)C3)n2)cc1 (stereo not drawn)",
    "Experimental Target": "MYLK",
    "Classification": "Condition met"
  },
  {
    "Compound": "Cc1n[nH]c2cc(Nc3ccnc(Nc4cccc(CN5CCOCC5)c4)n3)ccc12",
    "Experimental Target": "MYLK",
    "Classification": "Condition met"
  },
  {
    "Compound": "COc1cccc(CNC(=O)NC2CCN(c3ccnc(Nc4cc(OC)c(OC)c(OC)c4)n3)C2)c1 (stereo not drawn)",
    "Experimental Target": "MYLK",
    "Classification": "Condition met"
  }
]

Is %Inh of OCCn1cc(-c2cnc3nnn(Cc4ccc5ncccc5c4)c3n2)cn1 strictly below 30%?
Condition met

Is %Inh strictly under 30% for the entry CS(=O)(=O)Nc1ccc(-c2ccnc3[nH]ccc23)cc1 ?
Condition not met

For this compound, is %Inh lower than 30%? Cc1ccc2c(-c3ccnc(Nc4ccc(C(F)(F)F)cc4)n3)cnn2n1
Condition met

Consider the compound Cn1ccc2ncnc(Oc3ccc(NC(=O)Nc4cncc(C(F)(F)F)c4)c(Cl)c3)c21 . Is its %Inh strictly less than 30%?
Condition met

Determine if O=c1[nH]cc(-c2ccc(O)cc2)c2sc(-c3ccncc3)cc12 shows %Inh strictly lower than 30%.
Condition met
